procedure.details: folding stability dG unfold from trypsin proteolysis; higher = more stable
# key: entry, value: folding stability dG unfold

item.sequence: SAGGSAGGSLEVKVLGIVGDKPVEVTLPAGLGELTLEEIRAAFPPGEWRLVLRDENGNETPLTSAGGSAGGS [r12_540_TrMRF]
folding stability dG unfold: 0.663 kcal/mol
//
item.sequence: SAGGDEIVERVRQLFEDLGFPVEIVDDDAPDGVLRVRISPEAVEKLGPLVINLPFPDIKEVRTELLPSAGGS [r8_318_TrMRF]
folding stability dG unfold: 0.968 kcal/mol
//
item.sequence: SAGGSAGGSAGGMKPGEKPEVEYRVRIYDADTGEWREVPLEDLKKLKLPPGAVVEIEKVSAGGSAGGSAGGS [r10_1121_TrROS_Hall]
folding stability dG unfold: 2.01 kcal/mol
//
item.sequence: SAGGSAGGSAGHIPIIFQFEFEHYDPDDGKPKEHRWVIVIEFDGNGIKNIRIIPKEDAKKLLSAGGSAGGSA [r18_406_TrROS]
folding stability dG unfold: 2.31 kcal/mol
//
item.sequence: SAGSPVTLELRVTRPRADAATGAPATATETVTVTLPAAVVAAGLSPEEIARLLEAANPGATVELTAVASAGG [r19_110_JUSTAS]
folding stability dG unfold: 0.844 kcal/mol
//
item.sequence: SAGGSAGGSAGGSKKKKKKKKKKVVKLTVLIEKDGELYLVEIEFDKDGKIVSISVEKLPSAGGSAGGSAGGS [r4_192_TrROS_Hall]
folding stability dG unfold: 2.12 kcal/mol
//
item.sequence: SAGGSAGGSAGGSGLSFEIVEEREELLPDGRPRRRIFATLPGGRRLVIDDDGRITIDPDSAGGSAGGSAGGS [r4_111_TrMRF]
folding stability dG unfold: 0.45 kcal/mol
//
item.sequence: SAGGAFPPGEKVEVRIEVVELPGEGTYLLRAYLPGGKLLWERPFPEGELEAFAEEFRSLGFDTVEVTPSAGG [r13_765_TrMRF]
folding stability dG unfold: 2.51 kcal/mol
//
item.sequence: SAGGSGKEFEVEKAVFIPLPDDRKLIIVKTKTSIQIVEYNGEEWKLVATYPYKDVPKNPRELLKKKSAGGSA [r2_133_TrMRF]
folding stability dG unfold: 0.454 kcal/mol
//
item.sequence: SAGGRIRIEYDPENGTITIYVPTPDGEITPDQVEEIAKLLMELWPNIEVEIEPHPNGMVRITIKIPPKSAGG [r13_291_TrROS]
folding stability dG unfold: 3 kcal/mol
//
item.sequence: SAGGNINDIAKKLGLPPGGMIMIKDFSLEWHRMPMRVPEEDNDKPKEEKEVPMPMYKAEIKISLFPADSAGG [r13_482_TrROS]
folding stability dG unfold: 0.955 kcal/mol
//
item.sequence: SMEIDPGPGVIRLRFEAPLVDPEHPRLLTLRLEPVIEVSPDGTLRVREVRLVGFSPDGELLFERPFTLDLSA [r9_383_TrMRF]
folding stability dG unfold: 1.86 kcal/mol
//
item.sequence: SAGGSSLDEKIKQAVEEGKVPTEIEFTDPSNDLKTRYLVTVKSVLPGSYEVEVEEEIFDPDNPVLVSAGGSA [r2_420_JUSTAS]
folding stability dG unfold: -1.07 kcal/mol
//
item.sequence: SAGGSAGGSAGGMPIPIIVIPTPPNGNFTPEQIKEVAEKLNDPVVLTEESDNSRVILVGSAGGSAGGSAGGS [r10_642_TrMRF]
folding stability dG unfold: 0.928 kcal/mol

----------
Measured folding stability dG unfold by item
procedure.details: folding stability dG unfold (combined trypsin and chymotrypsin); higher = more stable

item.sequence: SAGGAGDQPVVIVATGSDGSPRVFPFKTKEPFKVTVNFPDEKRVFTVPADEPFVFDAPDGDILLDASSAGGS [r16_456_TrMRF]
folding stability dG unfold / kJ/mol: 1.65

item.sequence: SAGGSAGGSAGMTIKEDPKTGTRVVRLPDGSVLYIEEKGDKIKKVYSDPVPPVPPGNPALASAGGSAGGSAG [r3_406_JUSTAS]
folding stability dG unfold / kJ/mol: 2.4

item.sequence: SAGGSMSAEELREKIAADPRISLDDVTVTVTRTPDSVTVTVTLKDPNDPVYVEAEERARALFAELASAGGSA [r2_3_JUSTAS]
folding stability dG unfold / kJ/mol: 0.669

item.sequence: SAGGSAGGSAGGSVWIRMPPSKIKDLLDKFGIEPIEIEKMPPGWVYIRITPDALKEAGVFSAGGSAGGSAGG [r7_587_TrROS]
folding stability dG unfold / kJ/mol: 3.96

----------
As shown below, each of these sequences has a reported folding stability dG unfold value.
procedure.details: folding stability dG unfold (combined trypsin and chymotrypsin); higher = more stable

item.sequence: SAGGSAGGSAGGMTTLVLPAEVEPVPDGVRVRLPDGEDLYVPPGERVERTPDRVEVTLGSAGGSAGGSAGGS [r10_305_JUSTAS]
folding stability dG unfold (kcal/mol): -0.448
--
item.sequence: SAGGSAGGSAAMTVSEVSSSPDPSSDYLSFEVRTTETVKVPGTKAPVTTTVTTTPTKVSKLLSAGGSAGGSA [r18_41_JUSTAS]
folding stability dG unfold (kcal/mol): -0.111
--
item.sequence: SAGGSAGGSPKWKTIEITVLVPGMPAEEIAKNIANNFGIEITDIDVQLFPNGWVVVSATIRVKSAGGSAGGS [r12_359_TrROS]
folding stability dG unfold (kcal/mol): 2.99
--
item.sequence: SAGGGSSVLSETVSVDPNNVTTTTTTYKAGDTTSTTTTTTTTTPPVPNLPLPPPPPVSPEAIALGLLLSAGG [r13_760_JUSTAS]
folding stability dG unfold (kcal/mol): 0.481

----------
procedure.details: folding stability dG unfold from trypsin proteolysis; higher = more stable
I would appreciate it if you labelled entries YES when folding stability dG unfold is 0.9 kcal/mol or higher, otherwise NO.

item.sequence: SAMKPKEVVIEISVEELRKLAKELFPEKELTLEELKNLVKELLEKLGIKVKKVEIVKVDPEKKRIVIKVSAG [r14_303_TrROS_Hall]
discrete.label: YES
--
item.sequence: SAGGSAGGEVEIEVTEEEEVPGLPDQEIVTKAKLPDGKTVTIKRTVDPKTGKVSVSFSVIEPPLSAGGSAGG [r6_337_JUSTAS]
discrete.label: NO
--
item.sequence: SAGGSAGGSAGIPNLIAYEVSKEGKPVKIIVKSPNGEEYEITVSPNESIPENIEILKVEVGSAGGSAGGSAG [r3_421_TrMRF]
discrete.label: NO
--
item.sequence: SAGKKTIIIKIPPNMTVEELKKALKNLKPNEKVTITVNGKKYTITVKDGKIKITFPENVKNMILIIEVKSAG [r5_373_TrROS_Hall]
discrete.label: YES
--
item.sequence: SAGGSAGGSAGGKVKVLSVFELPNNKRLVLIETPSGKKILIVTDSSDPDKVKEKAKEIASAGGSAGGSAGGS [r10_472_TrMRF]
discrete.label: YES
--
item.sequence: SADPPDAVKIEIRIYMMEYDPDGKWEQREFNIEIEVAPDGHIIIRLGNWWIVIDPKEGEVTEIFPGFRFSAG [r14_821_TrROS]
discrete.label: YES
--
item.sequence: SPTQTITLTLPDRPVTVPLTAYPETGYVEITVTVTYPTGTKTYTFTVKAKSFEEVLAELSKLPEDFDINPSA [r9_713_TrMRF]
discrete.label: YES
--
item.sequence: SAGGSAGGSALIIVAPDGFIISIEWPNGKPRTIMMPPDEIDEILEDDGIKDIEIQKLPPGASAGGSAGGSAG [r3_141_TrROS]
discrete.label: NO
--
item.sequence: SAMKVYKAKVTIVDEEGNLLDEIELEFETEEELKEKVLEELGVSEEEIVEIELSPEVSEEEFEKKLKLESAG [r14_852_JUSTAS]
discrete.label: NO
--
item.sequence: SAGSITLVFKTPEELEEALKKLAEELGLSEEEVEALKKELEEKFTITYDEETGYVTITLKPELSEEELKSAG [r5_717_TrROS_Hall]
discrete.label: YES
--
item.sequence: SAGGSAGGSAGIKIVAPSPELADMIAKEIAKEFGLPGKIKDIEIEVIPYKPTPNGGYQPYSAGGSAGGSAGG [r17_237_TrROS]
discrete.label: NO
--
item.sequence: SAGGRGQELTIPNGAPIEDIEELAKKDPDYQVKITEIKMQKPKKDPNGKKRPVPMWMKITLYPAGEKSAGGS [r8_172_TrROS]
discrete.label: NO
--
item.sequence: SSKIEASATIEGDVITVTLVADSLSDLLAAIKELAEKLGVSFEILSISYKRLPNGKIIATVTARVKPEDLSA [r9_102_TrMRF]
discrete.label: YES
--
item.sequence: SAGGMPIYARIVLYPPETGKFSELEIEFPEFESPDEVVEAAKEIAEKLGGPIARIEIYDPKTGKPFPDSAGG [r13_771_TrMRF]
discrete.label: NO
--
item.sequence: SAGGSAGGSAGSMLTTTLPNGTPVTREFDIQDVEPKGDVIKVVITNPTGGEVPASTVIGPVNSAGGSAGGSA [r18_163_JUSTAS]
discrete.label: NO
--
item.sequence: SAGGSAGGSAGKYYIIKYPGKVEIIPESEVEKIIEANPNVEIEEFESKEEALKALEKALSSAGGSAGGSAGG [r11_60_TrMRF]
discrete.label: YES
--
item.sequence: SAGGSAGGSAGASPSVPFTVKVTIKSPNGLSTKTISLSSLEDLEALPLPNVVEIEITPLSSAGGSAGGSAGG [r17_290_JUSTAS]
discrete.label: YES
--
item.sequence: SAGGGSVSITLELEEEEEIEEIVNEKGIPEPLEKRIKKKVTITISPPPTLSSSSSVTGLAEKAIEEKSAGGS [r16_359_JUSTAS]
discrete.label: NO
--
item.sequence: SAGGSAGGSMSEELLAEGPVRIRVRVRNKDGSVEEIEVEAGEEIELPEELKNQDVEIVSIEPVSAGGSAGGS [r12_161_TrROS_Hall]
discrete.label: NO
--
item.sequence: SAGGSAGGGMEPVTETITVPITTPEELEAVKKEAEARREKEGLVSYEISESPDGTVTITITKPVSAGGSAGG [r6_730_JUSTAS]
discrete.label: NO
--
item.sequence: SAGKMYLIVIKVDGKEYVIVIPEEEMSEEEIRKLISEELGISEEEVEIVEIVPVEPGESVEEALKKALESAG [r5_900_TrROS_Hall]
discrete.label: YES
--
item.sequence: SDPNKPWTAEEIAKIIEEKILEEFDVEEIIPKELKVFPKEGTVKVKMLVKYKGEPGKYFELEVEISPEELSA [r9_1002_TrMRF]
discrete.label: YES
--
item.sequence: SAGGMLLLTLTVDRVEEAEFPEKVPYLRTTTQPVVVPGTTLEEAEAVAAALAAAHGVPVTLTVTPETGSAGG [r13_320_JUSTAS]
discrete.label: NO
--
item.sequence: SMTLEEAKEIAEKNPDIPVALIFPGKKLIYIYHPKSGKWEVKPVTSIEEAIEALEKEDIDAIFIVPAELDSA [r9_775_TrMRF]
discrete.label: YES
--
item.sequence: SAGGSAGGSGEEIIKKIAESLIPGHPNLKPDKITYDPKTGKITIKTKNPKAAKLLKELDLIKPSAGGSAGGS [r12_623_TrMRF]
discrete.label: NO
--
item.sequence: AVTVTVEPVGDALVVTVDLPRADGSPVRVVALFDPDGTVARVLVARSDPGPPRFVEVPAAPASDPVLLAAGS [r1_301_TrMRF]
discrete.label: NO
